Target: cPAH D139A (Chromobacterium violaceum, UniProt P30967, D139A)
Sequence (P30967 1-297 D139A): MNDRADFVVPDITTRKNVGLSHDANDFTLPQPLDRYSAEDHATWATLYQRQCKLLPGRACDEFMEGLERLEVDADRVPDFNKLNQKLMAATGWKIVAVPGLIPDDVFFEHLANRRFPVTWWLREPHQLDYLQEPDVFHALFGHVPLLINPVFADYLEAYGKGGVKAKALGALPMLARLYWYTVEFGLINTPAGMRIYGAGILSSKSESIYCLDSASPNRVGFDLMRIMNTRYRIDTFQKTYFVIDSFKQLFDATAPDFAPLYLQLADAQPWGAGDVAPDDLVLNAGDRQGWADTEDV
Assay: ITC, L-Phe binding to iron-reconstituted enzyme with excess BH4
observable: pKd
The read-out pKd is expressed as -log10 of concentration in moles per litre.

Q: Requested read-out: pKd. Entry: N[C@@H](Cc1ccccc1)C(=O)O [L-Phe, phenylalanine]
Ans: 4.41

----------
molecular target: cPAH D139E (Chromobacterium violaceum, UniProt P30967, D139E); experiment: ITC, Fe; type: binding; conditions: anaerobic, 25 °C, 2.5 mM TCEP
observable: pKd
The read-out pKd is expressed as -log10 of concentration in moles per litre.

Q: Requested read-out: pKd. Entry: O=S(=O)([O-])[O-].O=S(=O)([O-])[O-].[Fe+2].[NH4+].[NH4+] [Fe(II), ferrous ammonium sulfate]
Ans: 6.32

----------
biological target: cPAH D139N (Chromobacterium violaceum, UniProt P30967, D139N); experiment: ITC, Fe; assay type: binding; conditions: anaerobic, 25 °C, 2.5 mM TCEP
observable: Kd (nM)
Number in nM, nothing else.

Q: Checklist item: Kd tested on cPAH D139N (Chromobacterium violaceum, UniProt P30967, D139N), entry O=S(=O)([O-])[O-].O=S(=O)([O-])[O-].[Fe+2].[NH4+].[NH4+] [Fe(II), ferrous ammonium sulfate] , value?
Ans: 139

Taken from paper PMC4222540.
